Recorded values, source patent US20220324835A1.

Assayed Target: Cbl-b (Homo sapiens)
Sequence (Q13191 36-427): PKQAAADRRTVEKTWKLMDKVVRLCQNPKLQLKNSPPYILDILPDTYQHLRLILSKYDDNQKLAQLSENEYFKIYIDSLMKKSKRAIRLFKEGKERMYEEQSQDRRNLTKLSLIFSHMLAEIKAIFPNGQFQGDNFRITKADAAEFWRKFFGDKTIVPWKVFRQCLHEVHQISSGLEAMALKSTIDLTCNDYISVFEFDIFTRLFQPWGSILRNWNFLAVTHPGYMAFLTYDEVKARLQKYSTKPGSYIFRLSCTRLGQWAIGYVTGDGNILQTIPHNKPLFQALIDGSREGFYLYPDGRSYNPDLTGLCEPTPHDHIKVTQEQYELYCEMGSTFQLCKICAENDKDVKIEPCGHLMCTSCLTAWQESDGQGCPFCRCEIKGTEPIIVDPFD
Assay Protocol: Cbl-b activity assay (Cbl-b inhibition assay), TR-FRET of Cbl-b interaction with UbcH5B-Ub
Format: biochemical
Condition Description: assay buffer with 100 mM NaCl, 60 nM Src kinase; read-out: Cbl-b activity IC50
pIC50: −log10 of the molar value.

Compound String: C[C@H](Cc1nncn1C)c1cccc(N2Cc3c(cc(CN4CC[C@](C)(O)C4)cc3C(F)(F)F)C2=O)c1
Assayed Target: Cbl-b (Homo sapiens)
pIC50: > 7.00
//
Compound String: Cn1cnnc1CC1(c2cccc(N3Cc4c(cc(CN5CCOCC5)cc4C(F)(F)F)C3=O)c2)COC1
Assayed Target: Cbl-b (Homo sapiens)
pIC50: > 7.00
//
Compound String: C[C@H](Cc1nncn1C)c1cccc(NC(=O)c2cc(C(=O)N3C[C@@H](O)[C@H](F)C3)ccn2)c1
Assayed Target: Cbl-b (Homo sapiens)
pIC50: 6.52 to 7.00
//
Compound String: C[C@H](Cc1nncn1C)c1cccc(NC(=O)c2cc(C3CC3)cc(C(F)(F)F)n2)c1
Assayed Target: Cbl-b (Homo sapiens)
pIC50: > 7.00
//
Compound String: Cn1cnnc1C[C@H](c1cccc(N2Cc3c(cccc3C(F)(F)F)C2=O)c1)C(F)F
Assayed Target: Cbl-b (Homo sapiens)
pIC50: 6.52 to 7.00
//
Compound String: C[C@H](Cc1nocc1C(F)(F)F)c1cccc(N2Cc3c(cc(CN4CC[C@H](F)C4)cc3C(F)(F)F)C2=O)c1
Assayed Target: Cbl-b (Homo sapiens)
pIC50: 6.52 to 7.00
//
Compound String: C[C@H](Cc1nncn1C)c1cccc(N2Cc3c(cc([C@H]4CCCNC4)cc3C(F)(F)F)C2=O)c1
Assayed Target: Cbl-b (Homo sapiens)
pIC50: > 7.00
